Tested on: Human immunodeficiency virus 1
method_description: Antiviral activity against HIV1 NL4-3 infected in human MT4 cells assessed as p24 antigen level after 4 days by ELISA
Type: functional, organism-based
measurement_setup: Human immunodeficiency virus 1, NL4-3, MT4, 96 h
Answer each item with its documented EC50.
Numbers only, in nM.

molecule_smiles | EC50 [nM]
C=C(C)[C@@H]1CC[C@]2(C(=O)N3CCC(CCCC(=O)NCCN4CCOCC4)CC3)CC[C@]3(C)[C@H](CC[C@@H]4[C@@]5(C)CC[C@H](OC(=O)CC(C)(C)C(=O)O)C(C)(C)[C@@H]5CC[C@]43C)[C@@H]12 | 35
C=C(C)[C@@H]1CC[C@]2(C(=O)NCCCCCCCC(=O)N[C@@H](CC(C)C)[C@H](O)CC(=O)O)CC[C@]3(C)[C@H](CC[C@@H]4[C@@]5(C)CC[C@H](O)C(C)(C)[C@@H]5CC[C@]43C)[C@@H]12 | 89

Okay, next one:
Result for `C=C(COCCN1CCOCC1)[C@@H]1CC[C@]2(C(=O)NCCCCCCCC(=O)NC)CC[C@]3(C)[C@H](CC[C@@H]4[C@@]5(C)CC[C@H](O)C(C)(C)[C@@H]5CC[C@]43C)[C@@H]12` , tested on Human immunodeficiency virus 1, EC50: 90

###

Tested on: Human immunodeficiency virus 1
method_description: Antiviral activity against HIV1 3B infected in human MT2 cells assessed as p24 antigen level at their respective CC50 concentration after 4 days by ELISA
Type: functional, organism-based
measured_property: EC50

molecule_smiles | measurement
C=C(CBr)[C@@H]1CC[C@]2(C(=O)N[C@@H](CC(C)C)C(=O)O)CC[C@]3(C)[C@H](CC[C@@H]4[C@@]5(C)CC[C@H](O)C(C)(C)[C@@H]5CC[C@]43C)[C@@H]12 | Not Active
C=C(C)[C@@H]1CC[C@]2(C(=O)N[C@@H](CC(C)C)C(=O)O)CC[C@]3(C)[C@H](CC[C@@H]4[C@@]5(C)CC[C@H](O)C(C)(C)[C@@H]5CC[C@]43C)[C@@H]12 | Not Active
C=C(COCCc1ccc(OC)cc1)[C@@H]1CC[C@]2(C(=O)N[C@@H](CC(C)C)C(=O)O)CC[C@]3(C)[C@H](CC[C@@H]4[C@@]5(C)CC[C@H](O)C(C)(C)[C@@H]5CC[C@]43C)[C@@H]12 | Not Active

###

Test system: MT2
measurement_setup: human
Description: Cytotoxicity against human MT2 cells by XTT assay
measured_property: CC50 (µM)
Answers are plain numbers, in µM.

molecule_smiles | CC50, µM
C=C(COCC)[C@@H]1CC[C@]2(C(=O)N[C@@H](CC(C)C)C(=O)O)CC[C@]3(C)[C@H](CC[C@@H]4[C@@]5(C)CC[C@H](O)C(C)(C)[C@@H]5CC[C@]43C)[C@@H]12 | 40.7
C=C(COCCCC)[C@@H]1CC[C@]2(C(=O)N[C@@H](CC(C)C)C(=O)O)CC[C@]3(C)[C@H](CC[C@@H]4[C@@]5(C)CC[C@H](O)C(C)(C)[C@@H]5CC[C@]43C)[C@@H]12 | 24.9

Consider the following items and state reported CC50 for each.
1. C=C(C)[C@@H]1CC[C@]2(C(=O)N3CCC(CCCC(=O)O)CC3)CC[C@]3(C)[C@H](CC[C@@H]4[C@@]5(C)CC[C@H](O)C(C)(C)[C@@H]5CC[C@]43C)[C@@H]12
2. C=C(C)[C@@H]1CC[C@]2(C(=O)N[C@@H](CC(C)C)C(=O)O)CC[C@]3(C)[C@H](CC[C@@H]4[C@@]5(C)CC[C@H](NC(=O)CC(C)(C)C(=O)O)C(C)(C)[C@@H]5CC[C@]43C)[C@@H]12

Data returned:
1: 41; 2: 35.9

Consider the following items and state reported CC50 for each.
1. C=C(CON1CCOCC1)[C@@H]1CC[C@]2(C(=O)N[C@@H](CC(C)C)C(=O)O)CC[C@]3(C)[C@H](CC[C@@H]4[C@@]5(C)CC[C@H](O)C(C)(C)[C@@H]5CC[C@]43C)[C@@H]12
2. C=C(C)[C@@H]1CC[C@]2(C(=O)N[C@@H](CC(C)C)C(=O)O)CC[C@]3(C)[C@H](CC[C@@H]4[C@@]5(C)CC[C@H](O)C(C)(C)[C@@H]5CC[C@]43C)[C@@H]12
3. C=C(C)[C@@H]1CC[C@]2(C(=O)NCCCCCCCC(=O)O)CC[C@]3(C)[C@H](CC[C@@H]4[C@@]5(C)CC[C@H](O)C(C)(C)[C@@H]5CC[C@]43C)[C@@H]12
4. C=C(CO)[C@@H]1CC[C@]2(C(=O)NCCCCCCCC(=O)O)CC[C@]3(C)[C@H](CC[C@@H]4[C@@]5(C)CC[C@H](O)C(C)(C)[C@@H]5CC[C@]43C)[C@@H]12
5. C=C(COCCc1ccc(F)cc1)[C@@H]1CC[C@]2(C(=O)N[C@@H](CC(C)C)C(=O)O)CC[C@]3(C)[C@H](CC[C@@H]4[C@@]5(C)CC[C@H](O)C(C)(C)[C@@H]5CC[C@]43C)[C@@H]12
6. Cc1cn([C@H]2C[C@H](N=[N+]=[N-])[C@@H](CO)O2)c(=O)[nH]c1=O

Data returned:
27.5
29.8
33.4
40.7
24.4
1870
